Data credit: FireProtDB (doi:10.1111/febs.13659)

The reader will find reported unfolding free energy values listed item by item below.
B1: Cytosolic beta-glucosidase, O61594 (parent)
chain: MKLLVVLSLVAVACNASIVRQQRRFPDDFLFGTATASYQIEGAWDEDGKGENIWDYMVHNTPEVIRDLSNGDIAADSYHNYKRDVEMMRELGLDAYRFSLSWARILPTGMANEVNPAGIAFYNNYIDEMLKYNITPLITLYHWDLPQKLQELGGFANPLISDWFEDYARVVFENFGDRVKMFITFNEPREICFEGYGSATKAPILNATAMGAYLCAKNLVTAHAKAYYLYDREFRPVQGGQCGITISVNWFGPATPTPEDEMAAELRRQGEWGIYAHPIFSAEGGFPKELSDKIAEKSAQQGYPWSRLPEFTEEEKAFVRGTSDLIGVNHYTAFLVSATERKGPYPVPSLLDDVDTGSWADDSWLKSASAWLTLAPNSIHTALTHLNNLYNKPVFYITENGWSTDESRENSLIDDDRIQYYRASMESLLNCLDDGINLKGYMAWSLMDNFEWMEGYIERFGLYEVDFSDPARTRTPRKAAFVYKHIIKHRVVDYEYEPETMVMTIDEGH

Variants of: B1
Details: Spodoptera frugiperda; pH 6; Thermal; CD; Potassium phosphate 10mM; transition: 2; structure 5CG0; whole UniProt chain shown
Give just the numeric value; kcal/mol need not be written.

Reference set, count: 8
variant-code	measure	output-unit	numeric-value
F334A	unfolding free energy	kcal/mol	22.1
L100A	unfolding free energy	kcal/mol	24
V336F	unfolding free energy	kcal/mol	21.1
Y420A	unfolding free energy	kcal/mol	21.8
L389A	unfolding free energy	kcal/mol	23.9
L335A	unfolding free energy	kcal/mol	22.4
E265A	unfolding free energy	kcal/mol	23.6
L350A	unfolding free energy	kcal/mol	22.5

Ask: Return unfolding free energy (reported value) for this variant: M262F
Reply: 23.7

Ask: Return unfolding free energy (reported value) for this variant: K366A
Reply: 22
